Where these numbers come from: patent EP3860599B1

Assay: Plasma concentrations after oral dosing (solution in apple juice) of human volunteers, Example 1A
Type: in vivo
Conditions: human, plasma, po, 15 mg, subject 2 (76 kg); 15 mg oral; 1 h
Experimental: (+)-α-Dihydrotetrabenazine in defined amounts was administered by oral dosing (as a solution in apple juice) to six human volunteers. […] At 60 minutes after drug administration, PET scans were initiated and these were stopped at 120 minutes after drug administration. The experiment was carried out at dosages of 7.5 mg, 15 mg and 22.5 mg. […]
MEASUREMENT NAME: concentration at 1 h (ng/mL)
Give the value, in units of ng/mL, as a plain number.

Query :: Return concentration at 1 h (reported value) for this compound: COc1cc2c(cc1OC)[C@H]1C[C@@H](O)[C@H](CC(C)C)CN1CC2 [(+)-α-dihydrotetrabenazine]
Result :: 22.8

====

Test: Plasma concentrations after oral dosing (solution in apple juice) of human volunteers, Example 1A
Type: in vivo
Conditions: human, plasma, po, 15 mg, subject 5 (91 kg); 15 mg oral; 1.5 h
MEASUREMENT NAME: concentration at 1.5 h (ng/mL)
# unit: ng/mL | format: bare number

Query :: Please report the measured concentration at 1.5 h for COc1cc2c(cc1OC)[C@H]1C[C@@H](O)[C@H](CC(C)C)CN1CC2 [(+)-α-dihydrotetrabenazine]
Result :: 27.1

====

Experiment: Plasma concentrations after oral dosing (solution in apple juice) of human volunteers, Example 1A
Type: in vivo
Conditions: human, plasma, po, 15 mg, subject 6 (68 kg); 15 mg oral; 1 h
MEASUREMENT NAME: concentration at 1 h (ng/mL)
Give a bare numeral; the unit ng/mL is implied.

Query :: Identify measured concentration at 1 h associated with COc1cc2c(cc1OC)[C@H]1C[C@@H](O)[C@H](CC(C)C)CN1CC2 [(+)-α-dihydrotetrabenazine]
Result :: 10.6

====

Assay: Plasma concentrations after oral dosing (solution in apple juice) of human volunteers, Example 1A
Format: in vivo
Conditions: human, plasma, po, 15 mg, subject 6 (68 kg); 15 mg oral; 2 h
MEASUREMENT NAME: concentration at 2 h
Write the figure, then the unit, nothing else.

Query :: Give the measured concentration at 2 h for COc1cc2c(cc1OC)[C@H]1C[C@@H](O)[C@H](CC(C)C)CN1CC2 [(+)-α-dihydrotetrabenazine]
Result :: 17.4 ng/mL

====

Test: Plasma concentrations after oral dosing (solution in apple juice) of human volunteers, Example 1A
Format: in vivo
Settings: human, plasma, po, 7.5 mg, subject 2 (76 kg); 7.5 mg oral; 1 h
MEASUREMENT NAME: concentration at 1 h (ng/mL)
Could you give me the number in ng/mL? Just the number is fine.

Query :: Write down concentration at 1 h measured for item COc1cc2c(cc1OC)[C@H]1C[C@@H](O)[C@H](CC(C)C)CN1CC2 [(+)-α-dihydrotetrabenazine]
Result :: 13.7

====

Test: Plasma concentrations after oral dosing (solution in apple juice) of human volunteers, Example 1A
Type: in vivo
Details: human, plasma, po, 22.5 mg, subject 6 (68 kg); 22.5 mg oral; 1.5 h
MEASUREMENT NAME: concentration at 1.5 h (ng/mL)
Give a bare numeral; the unit ng/mL is implied.

Query :: Give the reported value of concentration at 1.5 h for this record: COc1cc2c(cc1OC)[C@H]1C[C@@H](O)[C@H](CC(C)C)CN1CC2 [(+)-α-dihydrotetrabenazine]
Result :: 5.87
